Data credit: patent US6835382B2

Items are presented alongside their recorded Times Baseline Response, E^d.
TARGET_OF_ASSAY: murine E^d MHC class II allele (Mus musculus, UniProt P01904+P01915)
Sequence (P01904 26-255): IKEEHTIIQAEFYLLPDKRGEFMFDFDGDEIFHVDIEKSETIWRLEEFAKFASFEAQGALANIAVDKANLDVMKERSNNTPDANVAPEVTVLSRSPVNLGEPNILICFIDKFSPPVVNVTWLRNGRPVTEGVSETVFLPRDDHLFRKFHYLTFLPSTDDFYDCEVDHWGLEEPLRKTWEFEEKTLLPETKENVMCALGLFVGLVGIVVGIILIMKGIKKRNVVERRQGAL
Sequence (P01915 27-264 limits assumed): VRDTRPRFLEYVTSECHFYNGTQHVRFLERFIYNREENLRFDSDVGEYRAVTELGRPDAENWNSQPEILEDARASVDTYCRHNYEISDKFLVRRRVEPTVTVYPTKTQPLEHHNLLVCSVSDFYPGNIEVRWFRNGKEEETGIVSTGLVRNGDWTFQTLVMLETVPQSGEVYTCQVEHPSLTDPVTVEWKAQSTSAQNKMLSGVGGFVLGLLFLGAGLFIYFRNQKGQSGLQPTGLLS
PROTOCOL_DETAILS: simultaneous assay, E^d allele (A20 APC, G28.C9 T hybridoma, HEL106-116; HT-2 [3H]TdR readout)
Format: cell-based
Parameters: The A20 and CH27 B cell lymphoma lines express H-2^d and H-2^k alleles, respectively; endogenous in cells; host or cells: A20 B cell lymphoma (mitomycin C-treated or paraformaldehyde-fixed)
PROTOCOL_CONDITIONS: Table 1; AE peptide 16 μM (second value); 0.4 μM HEL106-116; supernatant 1:4

>  <SUBSTANCE>
YRMKLPKSAK [AE108]

>  <Times Baseline Response, E^d>
11.6

$$$$
>  <SUBSTANCE>
PKSAKPVSQMR [AE104]

>  <Times Baseline Response, E^d>
0.9

$$$$
>  <SUBSTANCE>
Ac-YRMKLP-NH2 [AE115]

>  <Times Baseline Response, E^d>
5.7

$$$$
>  <SUBSTANCE>
SAKPVSQMR [AE105]

>  <Times Baseline Response, E^d>
1.1

$$$$
>  <SUBSTANCE>
YRMKLPKSAKPVSQMR [AE101]

>  <Times Baseline Response, E^d>
4.9

$$$$
>  <SUBSTANCE>
YRMKLPKSAKPV [AE107]

>  <Times Baseline Response, E^d>
4.8

$$$$
>  <SUBSTANCE>
Ac-LRMKLPKSAK-NH2 [AE110]

>  <Times Baseline Response, E^d>
27.8

$$$$
>  <SUBSTANCE>
Ac-YRMKLPKS-NH2 [AE112]

>  <Times Baseline Response, E^d>
26.2

$$$$
>  <SUBSTANCE>
Ac-YRMKLPKSAK-NH2 [AE109]

>  <Times Baseline Response, E^d>
20.8

$$$$
>  <SUBSTANCE>
KLPKSAKPVSQMR [AE103]

>  <Times Baseline Response, E^d>
1.3

$$$$
>  <SUBSTANCE>
RMKLPKSAKPVSQMR [AE102]

>  <Times Baseline Response, E^d>
4.2

$$$$
>  <SUBSTANCE>
Ac-LRMKLPK-NH2 [AE114]

>  <Times Baseline Response, E^d>
26.0

$$$$
>  <SUBSTANCE>
Ac-YRMKLPKSA-NH2 [AE111]

>  <Times Baseline Response, E^d>
18.8

$$$$
>  <SUBSTANCE>
Ac-YRMKLPK-NH2 [AE113]

>  <Times Baseline Response, E^d>
23.1

$$$$
>  <SUBSTANCE>
YRMKLPKSAKPVSQ [AE106]

>  <Times Baseline Response, E^d>
4.4

$$$$
